- System: M423I HCV replicon
- experiment.description: HCV replicon cell assay, real-time PCR, M423I
- Type: cell-based, HCV genotype 1b
- setup.conditions: Hepatitis C virus, 96 h, 4 days, HCV RNA by real time PCR
measurement.label: IC50 (nM)

compound="CC1CCC(C(=O)N(c2cc(C#CC(C)(C)C)sc2C(=O)O)C2CCC(O)CC2)CC1 (stereo not shown) [VX-222]" target_system="M423I HCV replicon" measurement_label=IC50 numeric_value=77.2

----------
- Tested on: L419M HCV replicon
- experiment.description: HCV replicon cell assay, real-time PCR, L419M
- Format: cell-based, HCV genotype 1b
- setup.conditions: Hepatitis C virus, 96 h, 4 days, HCV RNA by real time PCR
pIC50: −log10 of the molar value.
measurement.label: pIC50

compound="CC1CCC(C(=O)N(c2cc(C#CC(C)(C)C)sc2C(=O)O)C2CCC(O)CC2)CC1 (stereo not shown) [VX-222]" numeric_value=6.05
